Recorded values, source ChEMBL document CHEMBL1138241.

Values of IC50 reported for Acetylcholinesterase (Electrophorus electricus) appear below.

>  <Compound>
CC[N+](CC)(CC)CCOc1cc(OCC[N+](CC)(CC)CC)cc(C(=O)NCCCCCC(=O)NNc2c3c(nc4cc(Cl)ccc24)CCCC3)c1

>  <Study Target>
Acetylcholinesterase (Electrophorus electricus)
Sequence (O42275 whole entry): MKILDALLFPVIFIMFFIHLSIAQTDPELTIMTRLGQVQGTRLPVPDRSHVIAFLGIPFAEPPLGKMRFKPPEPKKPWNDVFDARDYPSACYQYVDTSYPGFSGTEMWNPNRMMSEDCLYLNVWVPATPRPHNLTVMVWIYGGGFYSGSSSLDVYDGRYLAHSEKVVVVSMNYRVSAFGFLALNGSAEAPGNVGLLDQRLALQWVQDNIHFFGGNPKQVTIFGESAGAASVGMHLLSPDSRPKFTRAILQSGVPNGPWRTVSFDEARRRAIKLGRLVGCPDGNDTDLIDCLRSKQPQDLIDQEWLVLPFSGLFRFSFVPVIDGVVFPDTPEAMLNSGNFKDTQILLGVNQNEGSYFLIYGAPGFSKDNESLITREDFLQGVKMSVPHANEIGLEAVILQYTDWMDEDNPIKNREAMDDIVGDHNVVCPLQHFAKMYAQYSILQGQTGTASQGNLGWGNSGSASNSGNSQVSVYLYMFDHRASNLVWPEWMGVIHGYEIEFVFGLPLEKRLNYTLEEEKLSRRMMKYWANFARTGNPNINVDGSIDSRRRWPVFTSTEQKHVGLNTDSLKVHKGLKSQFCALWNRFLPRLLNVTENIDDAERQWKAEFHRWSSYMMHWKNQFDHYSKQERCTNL

>  <Unit Symbol>
µM

>  <IC50>
0.048

$$$$
>  <Compound>
CC[N+](CC)(CC)CCOc1cc(OCC[N+](CC)(CC)CC)c(C(=O)NCCCCCC(=O)NNc2c3c(nc4cc(Cl)ccc24)CCCC3)cc1OCC[N+](CC)(CC)CC

>  <Study Target>
Acetylcholinesterase (Electrophorus electricus)

>  <Unit Symbol>
µM

>  <IC50>
0.09

$$$$
>  <Compound>
CC[N+](CC)(CC)CCOc1cccc(OCC[N+](CC)(CC)CC)c1OCC[N+](CC)(CC)CC [GALLAMINE]

>  <Study Target>
Acetylcholinesterase (Electrophorus electricus)

>  <Unit Symbol>
µM

>  <IC50>
3150

$$$$
>  <Compound>
CC[N+](CC)(CC)CCOc1ccc(C(=O)NCCCCCC(=O)NNc2c3c(nc4ccccc24)CCCC3)cc1

>  <Study Target>
Acetylcholinesterase (Electrophorus electricus)

>  <Unit Symbol>
µM

>  <IC50>
0.000467

$$$$
>  <Compound>
CC[N+](CC)(CC)CCOc1ccc(C(=O)NCCCCCC(=O)NNc2c3c(nc4cc(Cl)ccc24)CCCC3)cc1

>  <Study Target>
Acetylcholinesterase (Electrophorus electricus)

>  <Unit Symbol>
µM

>  <IC50>
0.026

$$$$
>  <Compound>
CC[N+](CC)(CC)CCOc1cc(OCC[N+](CC)(CC)CC)cc(C(=O)NCCCCCC(=O)NNc2c3c(nc4ccccc24)CCCC3)c1

>  <Study Target>
Acetylcholinesterase (Electrophorus electricus)

>  <Unit Symbol>
µM

>  <IC50>
0.00128

$$$$
